molecular target: Ehrlichia translocated factor-1 (Etf-1), recombinant 6×His-Etf-1 fusion protein (E. chaffeensis, UniProt Q2GG12 1-380); assay: fluorescence polarisation; details: both partners purified
Positions of bridges follow the written chain, without caps; N, C: chain ends. Non-standard residues stand in square brackets, D forms with d. No end group written: not given here. Phe(4-Cl) = N[C@@H](Cc1ccc(Cl)cc1)C(=O)O; Phe(4-F) = N[C@@H](Cc1ccc(F)cc1)C(=O)O; d2Nal = N[C@H](Cc1ccc2ccccc2c1)C(=O)O; Phg = N[C@H](C(=O)O)c1ccccc1; Nle = CCCC[C@H](N)C(=O)O; Dap = NC[C@H](N)C(=O)O; TMA = not defined here; βAla = NCCC(=O)O
reported_property: Kd (nM)
// units = nM; emit number, no label

// sample YHQ[dP]S[dL][Dap]F[d2Nal][dR]R[dR]R[Dap]-{βAla-βAla-Lys(FAM)} (linker 7-14 via TMA; reading uncertain; also: TMA third attachment point not given here) [FAM-labeled macrocyclic peptide B7] , its Kd was 6500

Kd reading for Y[dF]D[Nle][dN][dL][Dap][Phe(4-Cl)][d2Nal][dR]R[dR]R[Dap]-{βAla-βAla-Lys(FAM)} (linker 7-14 via TMA; reading uncertain; also: TMA third attachment point not given here) [FAM-labeled macrocyclic peptide B7-133-3] : 2400

Documented Kd of Y[dV][dL][dY][Phe(4-F)][dL][Dap][Phe(4-Cl)][d2Nal][dR]R[dR]R[Dap]-{βAla-βAla-Lys(FAM)} (linker 7-14 via TMA; reading uncertain; also: TMA third attachment point not given here) [FAM-labeled macrocyclic peptide B7-133-9] : 2200

Data point: Y[dN][d2Nal]S[Phg][dL][dL][Dap][Phe(4-Cl)][d2Nal][dR]R[dR]R[Dap]-{βAla-βAla-Lys(FAM)} (linker 8-15 via TMA; reading uncertain; also: TMA third attachment point not given here) [FAM-labeled macrocyclic peptide B7-131-1] ; Kd = 1700

meta.source: paper PMC9982066
